Test: Growth inhibition of human STO cells after 72 hrs by MTS assay
Format: functional
Parameter measured: IC50 (µM)
Give bare numbers, in µM.

I'd like to know its IC50. The compound in question is COc1ccc(Cn2cc3c(c2-c2cc(OC)c(OC)c(OC)c2)CCc2cnoc2-3)cc1N 0.07

====

Assay: Growth inhibition of human MP4 cells after 72 hrs by MTS assay
Type: functional
Parameter measured: IC50 (µM)
Give bare numbers, in µM.

I'd like to know its IC50. The compound in question is COc1ccc(Cn2cc3c(c2-c2cc(OC)c(OC)c(OC)c2)CCc2cnoc2-3)cc1N 0.16
